system: ryegrass, Italian (Italian ryegrass, Lolium multiflorum); assay: Test A preemergence; type: in vivo; conditions: Lolium multiflorum, pre-emergence, 240 h, 500 g ai/ha, preemergence; 0 to 100 scale where 0 is no effect and 100 is complete control; read-out: Ryegrass, Italian plant response rating
pest or weed control at 500 g/ha overview
State the answer as a number, implicitly in %.

Examples from the recorded data:
[[record]]
compound = "CN1C[C@H](c2ccc3c(c2)OCO3)[C@@H](C(=O)Nc2cccc(F)c2F)C1=O"
numeric_value = 70

[[record]]
compound = "COc1cc([C@H]2CN(C)C(=O)[C@@H]2C(=O)Nc2ccccc2SC)cc(OC)c1OC"
numeric_value = 0

[[record]]
compound = "CSc1ccccc1NC(=O)[C@H]1C(=O)NC[C@@H]1c1cc(F)c(F)c(F)c1"
numeric_value = 30

[[record]]
compound = "Cc1cc(F)cc([C@H]2CNC(=O)[C@@H]2C(=O)Nc2ccccc2S(C)(=O)=O)c1"
numeric_value = 0

[[record]]
compound = "CN1C[C@H](c2cscn2)[C@@H](C(=O)Nc2ccccc2F)C1=O"
numeric_value = 0

[[record]]
compound = "CN1CC[C@H](c2ccc(C(F)(F)F)cc2)[C@@H](C(=O)Nc2cccc(Cl)c2F)C1=O"
numeric_value = 60


pest or weed control at 500 g/ha reported for this compound Cc1cc(F)cc([C@H]2CNC(=O)[C@@H]2C(=O)Nc2cccc(F)c2F)c1 : 20

----------
test system: wheat (Triticum aestivum); assay: Test A postemergence; type: in vivo; details: Triticum aestivum, post-emergence, 240 h, 125 g ai/ha, postemergence, visual injury rating after approximately 10 d; read-out: Wheat plant response rating (0 to 100 scale, 0 no effect, 100 complete control)
metric: plant injury at 125 g/ha (%)
State the answer as a number, implicitly in %.

Examples from the recorded data:
[[record]]
compound = "CN1C[C@H](c2cc(F)c(F)c(F)c2)[C@@H](C(=O)Nc2ccccc2S(C)(=O)=O)C1=O [Compound 880]"
metric = "plant injury at 125 g/ha"
result_unit = "%"
numeric_value = 40

[[record]]
compound = "Cc1c(F)ccc([C@H]2CNC(=O)[C@@H]2C(=O)Nc2ccccc2S(C)(=O)=O)c1F [Compound 832]"
metric = "plant injury at 125 g/ha"
result_unit = "%"
numeric_value = 0

[[record]]
compound = "CSc1ccccc1NC(=O)[C@H]1C(=O)N(C)C[C@@H]1c1cc(C)cc(F)c1 [Compound 851]"
metric = "plant injury at 125 g/ha"
result_unit = "%"
numeric_value = 20


Next item in the queue.
plant injury at 125 g/ha reported for this compound Cc1c(F)ccc([C@H]2CNC(=O)[C@@H]2C(=O)Nc2ccccc2C(F)(F)F)c1F [Compound 831] : 0

----------
test system: barnyardgrass (Echinochloa crus-galli); test: Test A preemergence; format: in vivo; conditions: Echinochloa crus-galli, pre-emergence, 240 h, 31 g ai/ha, Preemergence; 0 to 100 scale where 0 is no effect and 100 is complete control; read-out: Barnyardgrass plant response rating
Classification field: enter y for pest or weed control at 31 g/ha values not below 20%, n for values below it.

Observe how each entry below is paired with its result.
[[record]]
compound = "N#Cc1ccc([C@H]2CNC(=O)[C@@H]2C(=O)Nc2cccc(F)c2F)cc1F"
tested_target = "barnyardgrass (Echinochloa crus-galli)"
label = "y"

[[record]]
compound = "CN1C[C@H](c2ccc(F)c(Oc3ccccc3)c2)[C@@H](C(=O)Nc2cccc(F)c2F)C1=O"
tested_target = "barnyardgrass (Echinochloa crus-galli)"
label = "n"

[[record]]
compound = "CN1C[C@H](c2cc(C(F)F)cs2)[C@@H](C(=O)Nc2cccc(F)n2)C1=O"
tested_target = "barnyardgrass (Echinochloa crus-galli)"
label = "n"

[[record]]
compound = "C=C(C)c1cccc([C@H]2CN(C)C(=O)[C@@H]2C(=O)Nc2cccc(F)c2C)c1"
tested_target = "barnyardgrass (Echinochloa crus-galli)"
label = "y"

[[record]]
compound = "CN1CC[C@H](c2ccc3c(c2)OC(F)(F)O3)[C@@H](C(=O)Nc2cccc(Cl)c2F)C1=O"
tested_target = "barnyardgrass (Echinochloa crus-galli)"
label = "y"


Req: For this compound, is measured pest or weed control at 31 g/ha 20% or higher? COc1cccc([C@H]2CN(C)C(=O)[C@@H]2C(=O)Nc2cccc(F)c2F)c1F
Resp: y

Req: For this compound, is measured pest or weed control at 31 g/ha 20% or higher? O=C1NC[C@H](c2ccc(F)c(Oc3ccccc3)c2)[C@H]1C(=O)Nc1cccc(F)c1F
Resp: n

Req: For this compound, is measured pest or weed control at 31 g/ha 20% or higher? O=C1NC[C@H](c2cc(Br)cc(Br)c2)[C@H]1C(=O)Nc1cccc(F)c1F
Resp: y

Req: For this compound, is measured pest or weed control at 31 g/ha 20% or higher? CN1C[C@H](c2csc3c2CCC(F)(F)C3)[C@@H](C(=O)Nc2ccc(F)c(F)c2F)C1=O (racemic)
Resp: n

Req: For this compound, is measured pest or weed control at 31 g/ha 20% or higher? CN1C[C@H](c2csc3c2CCOC3)[C@@H](C(=O)Nc2ccc(F)c(F)c2F)C1=O
Resp: y

Req: For this compound, is measured pest or weed control at 31 g/ha 20% or higher? CSc1ccccc1NC(=O)[C@H]1C(=O)N(C)C[C@@H]1c1ccc(F)c(Oc2ccccc2)c1
Resp: n

Req: For this compound, is measured pest or weed control at 31 g/ha 20% or higher? CN1C[C@H](c2csc3c2CCCC3)[C@@H](C(=O)Nc2ccc(F)c(F)c2F)C1=O
Resp: n

Req: For this compound, is measured pest or weed control at 31 g/ha 20% or higher? CN1C[C@H](c2csc3c2CCOC3)[C@@H](C(=O)Nc2ccccc2S(C)(=O)=O)C1=O
Resp: n

Req: For this compound, is measured pest or weed control at 31 g/ha 20% or higher? CN1C[C@H](c2cccc(C(F)(F)F)c2)[C@@H](C(=O)Nc2cnccc2C(F)(F)F)C1=O
Resp: y

Req: For this compound, is measured pest or weed control at 31 g/ha 20% or higher? CN1C[C@H](c2ccc(C#N)c(F)c2)[C@@H](C(=O)Nc2ccccc2F)C1=O
Resp: y

Req: For this compound, is measured pest or weed control at 31 g/ha 20% or higher? CN1C[C@H](c2csc3c2CCC(F)(F)C3)[C@@H](C(=O)Nc2cccc(F)c2F)C1=O (racemic)
Resp: n

Req: For this compound, is measured pest or weed control at 31 g/ha 20% or higher? CN1C[C@H](c2csc3c2CCC3)[C@@H](C(=O)Nc2ccccc2F)C1=O
Resp: y
